Method summary: In vitro cytotoxicity, MTT cell viability assay in HepG2 cells
Type: cell-based
Conditions used: human, Cytotoxicity CC50
Give measured CC50 at 7 days for each item. Keep answers brief.

These recorded examples may help you get a feel for the data.
>>> df
                                   compound  measurement_name  assay_value
0  Cc1cc(NC(=O)c2ccc(F)c(C(F)(F)C(=O)N3[C@H]4CC[C@@H]3c3cn[nH]c3C4)c2)ccc1F    CC50 at 7 days   5 to 30 µM
1  Cc1cc(NC(=O)c2ccc(Br)c(C(F)(F)C(=O)N3CCC(O)CC3)c2)ccc1F    CC50 at 7 days      > 30 µM

Look up CC50 at 7 days for the entries below, preserving their order.
1. O=C(Nc1cc(F)c(F)c(F)c1)c1ccc(F)c(C(F)(F)C(=O)N2[C@@H]3CC[C@H]2C[C@H](O)C3)c1
2. Cc1cc(NC(=O)c2ccc(F)c(C(F)(F)C(=O)N3[C@@H]4CCC[C@H]3CC(O)C4)c2)ccc1F (stereo partly drawn)
3. Cc1cc(NC(=O)c2cc(C(F)(F)C(=O)N3CCC(O)CC3)n(C)c2)ccc1F
4. Cc1cc(NC(=O)c2ccc(F)c(C(F)(F)C(=O)N3CC=C(B(O)O)CC3)c2)ccc1F
5. Cc1cc(NC(=O)c2ccc(F)c(C(F)(F)C(=O)N3CCC(NS(C)(=O)=O)C(F)(F)C3)c2)ccc1F (stereo not drawn)
6. CC(=O)NC1CCN(C(=O)C(F)(F)c2nc(C(=O)Nc3ccc(F)c(C)c3)ccc2F)CC1(C)C (stereo not drawn)
7. Cc1cc(NC(=O)c2ccc(F)c(C(F)(F)C(=O)N3[C@@H]4COC[C@H]3CN(C(=O)N3CCS(=O)(=O)CC3)C4)c2)ccc1F
8. CC[C@H](C)NC(=O)C(F)(F)c1c(C(=O)Nc2ccc(F)c(C)c2)ccn1C

stdout:
5 to 30 µM
5 to 30 µM
> 30 µM
5 to 30 µM
> 30 µM
5 to 30 µM
> 30 µM
> 30 µM

# per-item lookup of CC50 at 7 days; items listed below
1. COc1cc(NC(=O)c2ccc(Cl)c(C(F)(F)C(=O)N3CCC(O)CC3)c2)cc(F)c1F
2. C=Cc1ccc(C(=O)Nc2ccc(F)c(C)c2)cc1C(F)(F)C(=O)N1CCC(O)CC1
3. O=C(Nc1ccc(F)c(F)c1)c1ccc(F)c(C(F)(F)C(=O)N2CCOCC2)c1

stdout:
["> 30 µM", "> 30 µM", "5 to 30 µM"]

Your task in this section: give CC50 at 7 days for each listed record.
1. N#Cc1cc(NC(=O)c2ccc(F)c(C(F)(F)C(=O)N3[C@@H]4CC[C@H]3C[C@H](O)C4)c2)ccc1F
2. Cc1cc(NC(=O)c2ccc(F)c(C(F)(F)C(=O)N3C[C@H]4CC[C@@H](C3)C4=O)c2)ccc1F
3. Cc1cc(NC(=O)c2ccn(C)c2C(F)(F)C(=O)NC2CCC(O)CC2)ccc1F (stereo not drawn)
4. Cc1cc(NC(=O)c2ccc(F)c(C(F)(F)C(=O)N3CC4COCC(C3)C4O)c2)ccc1F (stereo not drawn)
5. CCN(CCCO)C(=O)C(F)(F)c1cc(C(=O)Nc2ccc(F)c(F)c2)ccc1F

stdout:
1: 5 to 30 µM; 2: 5 to 30 µM; 3: > 30 µM; 4: > 30 µM; 5: > 30 µM

Take each entry in turn and give its CC50 at 7 days.
1. O=C(Nc1ccc(F)c(F)c1)c1ccc(F)c(C(F)(F)C(=O)NC2CCC(O)CC2)c1 (stereo not drawn)
2. Cc1cc(NC(=O)c2ccc(F)c(C(F)(F)C(=O)N3[C@@H]4CC[C@H]3C[C@H](O)C4)c2)ccc1F
3. O=C(Nc1ccc(F)c(Cl)c1)c1ccc(F)c(C(F)(F)C(=O)N2[C@@H]3CC[C@H]2C[C@@H](O)C3)c1
4. CC(C)n1cc(NC(=O)c2ccc(F)c(C(F)(F)C(=O)N3[C@@H]4CC[C@H]3C[C@H](O)C4)c2)cn1
5. Cc1cc(NC(=O)c2ccc(F)c(C(F)(F)C(=O)N3CCC(O)C(F)(F)C3)c2)ccc1F (stereo not drawn)
6. Cc1cc(NC(=O)c2ccc(F)c(C(F)(F)C(=O)N3[C@@H]4COC[C@H]3CN(S(N)(=O)=O)C4)c2)ccc1F

stdout:
1. 5 to 30 µM
2. 5 to 30 µM
3. 5 to 30 µM
4. > 30 µM
5. 5 to 30 µM
6. > 30 µM

Please look at the items below and tell me CC50 at 7 days for each one, in order.
1. O=C(Nc1ccc(F)c(F)c1)c1ccc(F)c(C(F)(F)C(=O)N2CCC(CO)CC2)c1
2. Cc1cc(NC(=O)c2ccc(F)c(C(F)(F)C(=O)N3CCC4(CC3)NC(=O)NC4=O)c2)ccc1F
3. O=C(Nc1cc(F)c(F)c(F)c1)c1ccc(F)c(C(F)(F)C(=O)N2CCC(O)C(F)(F)C2)c1 (stereo not drawn)
4. N#Cc1cc(NC(=O)c2ccc(F)c(C(F)(F)C(=O)N3CCC(O)(CO)CC3)c2)ccc1F
5. Cc1cc(NC(=O)c2ccc(F)c(C(F)(F)C(=O)N3C4CCC3CC(O)C4)c2)ccc1F (stereo not drawn)

stdout:
1. 5 to 30 µM
2. > 30 µM
3. 5 to 30 µM
4. 5 to 30 µM
5. 5 to 30 µM

stdin: Which value of CC50 at 7 days has been reported for "Cc1cc(NC(=O)c2ccc(F)c(C(F)(F)C(=O)N3CCC(N)CC3)c2)ccc1F" in the records?
stdout: 5 to 30 µM
